Entry source: patent US20200109194A1

target: T1, Macaca fascicularis TMEFF1 extracellular domain recombinant protein (plasmid BBP480, S40-V330, C-terminal … (Macaca fascicularis)); experiment: BLI (Octet Red), antibody on Protein A biosensor, recombinant cyTMEFF1 ECD as analyte
T1 construct: range 40-330; also called cyTMEFF1 ECD; monkey TMEFF1 ectodomain
Record form. Attribute: Kd. Fill in for each entry.

Query block: Endpoint output: Kd of 31B7 (antibody, human IgG1, V domains shown) VH: QVQLVESGGGVVQPGRSLRLSCAASGFTFSSYGMHWVRQAPGKGLEWVAVIWYNGINKYYADSVKGRFTISRDASKNTLYLQMNSLRAEDTAVYYCAREGLLWFGGMDVWGQGTTVTVSS VL: EIVLTQSPLSLPVTPGEPASISCRSSQSLLHSNGYNYLHWYLQKPGQSPQLLIYLGSNRASGVPDRFSGSRSGTDFTLKIIRVEAEDVGVYYCMQALQTPYTFGQGTKLEIK . Value?
Result block: 101 nM

Query block: Please give the result for M1F1 (antibody, human IgG1, V domains shown) VH: QVQLQESGPGLVKPSETLSLTCAVSGYSISSGYFWGWIRQPPGKKLEWIGSIYHSGSTYYNPSLKSRVTMSVDTSKNQFSLKLSSVTAADTAVYYCAREGDCSGGICYWYFDLWGRGTLVTVSS VL: EIVMTQSPATLSVSPGERATLSCRASQSVSSNLAWYQQKPGQAPRLLIYGASTRATGIPARFSGSGSGTEVTLTISSLQSEDFAVYYCQQYNKWPLTFGGGTKVEIK too.
Result block: 27 nM

Query block: Please give the result for 34B7 (antibody, human IgG1, V domains shown) VH: QVQLVESGGGVVQPGRSLRLSCAASGFTFTSYGMHWVRQAPGKGLEWVAVVWYEGNSKFYIDSVKGRFIISRDNSKNTLYLQMNSLRAEDTAVYYCARAYCGDDCYPFDYWGQGTLVTVSS VL: DIQMTQSPSSLSASVGDRVTITCRASQGISNYLAWYQQKPGKVPKLLIYAASTLQSGVPSRFSGSGSGTDFTLTISSLQPEDVATYYCQKYNSAPWTFGQGTKLEIK too.
Result block: 22 nM

Query block: Please give the result for 24F10 (antibody, V domains shown) VH: QVQLVESGGGVVQPGRSLRLSCAASGFTFSSYGMHWVRQAPGKGLEWVAVIWYDGSDKYYTDSVKGRFTISRDNSKNTLYLQMNSLRAEDTAVYYCARESMVRGIVITFFDYWGQGTLVTVSS VL: EIVMTQSPATLSVSPGERATLSCRASQSVSSNLAWYQQKPGQAPRLLIYGASTRATGIPARFSGSGSGTEFTLTISSLQSEDFAVYSCQHYNNWPPTFGGGTKVEIK too.
Result block: 65 nM

Query block: Please give the result for 36H6 (antibody, human IgG1, V domains shown) VH: QVQLVESGGGVVQPGRSLRLSCAASGFTFSDYGMHWVRQAPGKGLEWVAVIWYEGGNKYYTDSVKGRFTISRDNSKNTLYLQMNSLRAEDTAVYYCARILLWFGESYGMDVWGQGTTVTVSS VL: DIQMTQSPSSLSASVGDRVTITCRASQGISNYLAWYQQKPGKVPKLLIYAASTLQSGVPSRFSGSGSGTDFTLTISSLQPEDVATYYCQKYNNAPWTFGQGTKVEIK too.
Result block: 96 nM
